experiment: in vitro; settings: human
Structures can show the parent of a compound that is named as a salt.
# log10 of CC50 listing for each entry below
# log10 transformed; quantity=CC50; unit=µM

Observe how each entry below is paired with its result.
- c1ccc(-c2cccc(OCCCCN3CCNCC3)c2)cc1 [Compound 13a]: 2.16
- c1ccc(Cc2ccc(OCCCCN3CCNCC3)cc2)cc1 [Compound 13c]: 2.15
- CC(C)c1ccc(-c2ccc(OCCCCN3CCNCC3)cc2)cc1 [Compound 13i]: 1.37
- NCCCCCCOc1ccc(-c2ccccc2)cc1 [Compound 5a, 6-(Biphenyl-4-yloxy)hexan-1-amine·HCl]: 1.65
- CC(C)c1cccc(-c2ccc(OCCCCN3CCNCC3)cc2)c1 [Compound 13j]: 1.41

For NCCCNCCOc1ccc(-c2ccccc2)cc1 the compound record lists log10 of CC50 as 1.93

Recorded result, c1ccc(Cc2ccccc2OCCCCN2CCNCC2)cc1 [Compound 13e] , log10 of CC50: 2.17

* * *

Below is a list of entries, each paired with its recorded IC50 value.
system: rRVFVΔNSs::Katushka; assay: microbe, parasite or virus in culture; assay type: cell-based, Rift Valley fever virus; settings: Rift Valley fever virus, A549, 16 h, read-out: IC50, dose-response curves of inhibition of RVFV infection (Figure 5A)
Answer format: numeric, µM implied, no suffix.

- C=C[C@H]1C[N@@]2CC[C@H]1C[C@@H]2[C@@H](O)c1ccnc2ccc(OC)cc12 [quinidine, reference compound]: 164

// below: IC50 requested for another molecule
# IC50 (molecule: c1ccc(-c2cccc(OCCCCN3CCNCC3)c2)cc1 [Compound 13a] ) is 13.8

* * *

system: rRVFVΔNSs::Katushka; assay: microbe, parasite or virus in culture; format: cell-based, Rift Valley fever virus; conditions: Rift Valley fever virus, A549, 16 h, read-out: EC50 value, inhibition of RVFV infection (dose-response before membrane potential assay)
quantityName: EC50 (µM)
Give your result in µM as a bare value.

EC50 reading for C=C[C@H]1C[N@@]2CC[C@H]1C[C@@H]2[C@@H](O)c1ccnc2ccc(OC)cc12 [quinidine, reference compound] : 146

* * *

assay: in vitro; conditions: human
quantityName: CC50 (µM)
Report the figure in µM without appending any unit label.

Some molecules with recorded CC50:
• CN(C)c1cccc(-c2ccc(OCCCCN3CCNCC3)cc2)c1 [Compound 13h] = 82.5
• c1ccc(-c2ccc(OCCCN3CCNCC3)cc2)cc1 = 203
• c1ccc(-c2ccc(OCCN3CCNCC3)cc2)cc1 = 165

Here is another molecule to look at.
Lab note: c1ccc(-c2ccc(OCCCCCN3CCNCC3)cc2)cc1 gave CC50 of 44.2

* * *

experiment: in vitro; conditions: human
Collected log10(CC50) values appear next to each entry.
Base-10 log of CC50, unit µM.

Here's what some known entries look like.
* c1cc(C23CC4CC(CC(C4)C2)C3)ccc1OCCCCN1CCNCC1 [Compound 13m] | 1.12
* c1ccc(Cc2cccc(OCCCCN3CCNCC3)c2)cc1 [Compound 13d] | 2.13
* NCCCOc1ccc(-c2ccccc2)cc1 | 2.17
* c1cc(C2CCCCC2)ccc1OCCCCN1CCNCC1 [Compound 13l] | 1.70
* c1ccc(-c2ccc(OCCCCN3CCNCC3)cc2)cc1 | 1.87

Next, consider the following compound.
Field log10(CC50) (entry CN1CCN(CCCCOc2ccc(-c3ccccc3)cc2)CC1 ) reads 2.13
